Sourced from ChEMBL document CHEMBL4840359

Field: Intrinsic activity. Provide a value for each of the compounds that follow.
- testedOn: Neuropeptide Y receptor type 4 (Homo sapiens, UniProt P50391)
- Sequence (P50391 whole entry): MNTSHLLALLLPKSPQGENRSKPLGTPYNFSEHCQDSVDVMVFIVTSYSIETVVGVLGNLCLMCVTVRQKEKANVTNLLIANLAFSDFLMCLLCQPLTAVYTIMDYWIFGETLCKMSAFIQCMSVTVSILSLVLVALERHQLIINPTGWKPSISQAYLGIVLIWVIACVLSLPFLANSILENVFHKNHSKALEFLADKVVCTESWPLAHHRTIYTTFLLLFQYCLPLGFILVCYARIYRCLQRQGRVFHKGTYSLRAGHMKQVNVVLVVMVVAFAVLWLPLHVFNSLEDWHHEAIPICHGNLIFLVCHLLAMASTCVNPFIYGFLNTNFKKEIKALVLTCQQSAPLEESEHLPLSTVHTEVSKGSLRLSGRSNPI
- protocolDescription: Intrinsic activity at human neuropeptide Y Y4 receptor expressed in CHO-mtAEQ cells co-expressing Gqi5 by calcium aequorin assay
- Assay type: functional, cell-based
Residues, ends and D or L forms follow the SMILES beside them.

Fill blank: measured Intrinsic activity of the compound `CC(C)C[C@H](NC(=O)[C@@H]1CCCNC(=N)NC(=O)NCCCNC(=O)CCC(=O)N[C@@H](CCCNC(=N)N)C(=O)N[C@@H](Cc2ccc(O)cc2)C(=O)N1)C(=O)N[C@@H](CCCNC(=N)N)C(=O)N[C@@H](Cc1ccc(O)cc1)C(N)=O` is ____. 83%

Fill blank: measured Intrinsic activity of the compound CC(C)C[C@H](NC(=O)[C@@H]1CCCNC(=N)NC(=O)NCCCCNC(=O)CCC(=O)N[C@@H](CCCCN)C(=O)N[C@@H](Cc2ccc(O)cc2)C(=O)N1)C(=O)N[C@@H](CCCNC(=N)N)C(=O)N[C@@H](Cc1ccc(O)cc1)C(N)=O (HELM PEPTIDE1{K.Y.[N=C(NCCC[C@H](N[*:1])C(=O)[*:2])N[*:3]].L.R.Y.[am]}|CHEM1{[O=C(CCC(=O)[*:1])NCCCCNC(=O)[*:2]]}$PEPTIDE1,CHEM1,1:R1-1:R1|PEPTIDE1,CHEM1,3:R3-1:R2$$$V2.0) is ____. 75%

----------
- testedOn: Neuropeptide Y receptor type 4 (Homo sapiens, UniProt P50391)
- protocolDescription: Intrinsic activity at human neuropeptide Y Y4 receptor expressed in HEK293T-ARRB2 cells assessed as stimulation of beta-arrestin 2 recruitment by multimode plate reader relative to hPP
- Format: functional, cell-based
Active and inactive are the calls of the source. The calls are words filed in the database; no cut-off is given here. Starred links: 1 amine or outer side, 2 acyl side, 3 side chain; linkers in the order of their positions; H or OH if unused. Residues, ends and D or L forms follow the SMILES beside them. Groups on a side chain read outwards from the residue. *: point of attachment. Suc = O=C(CCC(=O)[*:2])[*:1]; NH(CH2)4NH2 = NCCCCN*; CO = O=C([*:1])[*:2]; NH(CH2)3NH2 = NCCCN*
propertyLabel: Intrinsic activity

Examples from the recorded data:
compound	readoutValue
CC(C)C[C@H](NC(=O)[C@@H]1CCCNC(=N)NC(=O)NCCCCNC(=O)CCC(=O)N[C@@H](CCCNC(=N)N)C(=O)N[C@@H](Cc2ccc(O)cc2)C(=O)N1)C(=O)N[C@@H](CCCNC(=N)N)C(=O)N[C@@H](Cc1ccc(O)cc1)C(N)=O	73%
CC(=O)N[C@@H](CCCNC(=N)N)C(=O)N[C@@H](Cc1ccc(O)cc1)C(=O)N[C@@H](CCCNC(=N)N)C(=O)N[C@@H](CC(C)C)C(=O)N[C@@H](CCCNC(=N)N)C(=O)N[C@@H](Cc1ccc(O)cc1)C(N)=O	61%
CC(C)C[C@H](NC(=O)[C@@H]1CCCNC(=N)NC(=O)NCCCCNC(=O)CCC(=O)N[C@@H](CCCNC(=N)N)C(=O)N1)C(=O)N[C@@H](CCCNC(=N)N)C(=O)N[C@@H](Cc1ccc(O)cc1)C(N)=O (HELM PEPTIDE1{R.[N=C(NCCC[C@H](N[*:1])C(=O)[*:2])N[*:3]].L.R.Y.[am]}|CHEM1{[O=C(CCC(=O)[*:1])NCCCCNC(=O)[*:2]]}$PEPTIDE1,CHEM1,1:R1-1:R1|PEPTIDE1,CHEM1,2:R3-1:R2$$$V2.0)	83%
CC(C)C[C@H](NC(=O)[C@H](CCCNC(=N)NC(=O)NCCCCN)NC(=O)[C@H](Cc1ccc(O)cc1)NC(=O)[C@H](CCCCN)NC(=O)CCC(=O)O)C(=O)N[C@@H](CCCNC(=N)N)C(=O)N[C@@H](Cc1ccc(O)cc1)C(N)=O (Suc-KYR([CO-NH(CH2)4NH2])LRY-NH2)	61%

Fill blank: measured Intrinsic activity of the compound `CC(C)C[C@H](NC(=O)[C@@H]1CCC(=O)NCC(=O)N[C@H](CCCNC(=N)N)C(=O)N[C@@H](CCCNC(=N)N)C(=O)N1)C(=O)N[C@@H](CCCNC(=N)N)C(=O)N[C@@H](Cc1ccc(O)cc1)C(N)=O` is ____. inactive

Fill blank: measured Intrinsic activity of the compound N=C(N)NCCC[C@H](NC(=O)CCC(=O)O)C(=O)N[C@@H](Cc1ccc(O)cc1)C(=O)N[C@@H](CCCNC(=N)NC(=O)NCCCN)C(=O)N[C@@H](Cc1c[nH]c2ccccc12)C(=O)N[C@@H](CCCNC(=N)N)C(=O)N[C@@H](Cc1ccc(O)cc1)C(N)=O (Suc-RYR([CO-NH(CH2)3NH2])WRY-NH2) is ____. inactive
